test target: HLA-A*6802 (Homo sapiens, UniProt P04439, A269V/D140Y/D185E/E176V/E277Q/E87N/F33Y/G231S/I121R/I166T/I218V/L180W/L300P/L318F/N151K/P208A/P217A/Q86R/R138H/R169H/S129P/T345S/V36M)
method description: HLA class I binding assay, purified HLA, inhibition of 125I-labelled probe peptide
particulars: A2 supermotif cross-reactive binding data; read-out: A*6802 nM
outcome measure: log10(IC50) (log10 of the value in µM)
Use the decimal logarithm of IC50 (µM).

Form field: reported log10(IC50) of CC(C)C[C@H](NC(=O)[C@H](CC(C)C)NC(=O)[C@H](Cc1c[nH]cn1)NC(=O)[C@H](CC(C)C)NC(=O)[C@H](CO)NC(=O)[C@@H](NC(=O)[C@H](CS)NC(=O)[C@H](CCC(N)=O)NC(=O)[C@H](CC(C)C)NC(=O)[C@@H](N)CO)C(C)C)C(=O)O [Peptide 1419.66]
0.70

Form field: reported log10(IC50) of CC(C)C[C@H](NC(=O)[C@H](Cc1c[nH]c2ccccc12)NC(=O)[C@H](Cc1ccccc1)NC(=O)[C@H](Cc1ccccc1)NC(=O)[C@H](CC(C)C)NC(=O)[C@H](CC(C)C)NC(=O)[C@@H](N)Cc1ccccc1)C(=O)N[C@@H](CC(=O)O)C(=O)N[C@@H](CCCNC(=N)N)C(=O)N[C@@H](CO)C(=O)N[C@H](C(=O)O)C(C)C [Peptide 63.0138]
-0.44

Form field: reported log10(IC50) of CC(C)C[C@H](NC(=O)[C@H](CC(=O)O)NC(=O)CNC(=O)[C@H](CCC(=O)O)NC(=O)[C@@H]1CCCN1C(=O)[C@H](CC(C)C)NC(=O)CN)C(=O)N[C@H](C(=O)N[C@@H](Cc1ccc(O)cc1)C(=O)N[C@H](C(=O)O)C(C)C)C(C)C [Peptide 1389.22]
-0.02

Form field: reported log10(IC50) of CC(C)C[C@H](NC(=O)[C@H](CC(C)C)NC(=O)[C@@H](N)CO)C(=O)N[C@@H](C)C(=O)N[C@@H](CCCCN)C(=O)N[C@@H](CCC(=O)O)C(=O)N[C@@H](CC(C)C)C(=O)N[C@@H](CCCCN)C(=O)N[C@@H](Cc1ccccc1)C(=O)N[C@H](C(=O)O)C(C)C [Peptide 63.0033]
0.82

Form field: reported log10(IC50) of CSCC[C@H](NC(=O)[C@H](CCC(N)=O)NC(=O)[C@H](CC(C)C)NC(=O)CNC(=O)[C@H](CO)NC(=O)[C@@H](NC(=O)[C@@H](N)[C@@H](C)O)C(C)C)C(=O)N[C@@H](C)C(=O)N[C@H](C(=O)O)C(C)C [Peptide 60.0213]
-2.24

Form field: reported log10(IC50) of CC(C)[C@H](NC(=O)[C@@H]1CCCN1C(=O)[C@@H](NC(=O)[C@H](C)NC(=O)CNC(=O)[C@@H](NC(=O)[C@H](CS)NC(=O)CNC(=O)[C@@H](NC(=O)[C@@H](N)CO)C(C)C)[C@@H](C)O)C(C)C)C(=O)O [Peptide 1418.35]
-0.67

Form field: reported log10(IC50) of CC(C)C[C@H](NC(=O)[C@H](CCC(=O)O)NC(=O)[C@H](CCCNC(=N)N)NC(=O)[C@H](CC(C)C)NC(=O)[C@@H](N)CCCCN)C(=O)N[C@@H](CO)C(=O)N[C@@H](CCC(=O)O)C(=O)N[C@@H](CC(C)C)C(=O)N[C@@H](CO)C(=O)N[C@H](C(=O)O)C(C)C [Peptide 63.0048]
0.26

Form field: reported log10(IC50) of CSCC[C@H](N)C(=O)N[C@@H](CC(C)C)C(=O)N[C@@H](CC(C)C)C(=O)N[C@@H](CCCNC(=N)N)C(=O)N[C@@H](CC(C)C)C(=O)N[C@@H](CO)C(=O)N[C@@H](CCC(=O)O)C(=O)N1CCC[C@H]1C(=O)N[C@@H](C)C(=O)N[C@@H](CCC(=O)O)C(=O)N[C@H](C(=O)O)C(C)C [Peptide 1389.12]
0.65

###

test target: HLA-A*0203 (Homo sapiens, UniProt P04439, A173T/D140Y/D185E/D98H/E277Q/G131W/G231S/I119V/I121R/I166T/I218V/L180W/L300P/L318F/N151K/N90K/P208A/P217A/Q86G/Q94H/R138H/R169H/T345S)
method description: HLA class I binding assay, purified HLA, inhibition of 125I-labelled probe peptide
particulars: A*[…], A2 supermotif cross-reactive binding data
outcome measure: pIC50
pIC50 is defined as minus the log10 of a concentration measured in mol/L.

Form field: reported pIC50 of CSCC[C@H](NC(=O)[C@H](CC(=O)O)NC(=O)[C@H](CC(N)=O)NC(=O)[C@H](CO)NC(=O)[C@H](CC(C)C)NC(=O)[C@H](CC(C)C)NC(=O)[C@@H](N)Cc1c[nH]cn1)C(=O)N[C@@H](CS)C(=O)N[C@@H](C)C(=O)N[C@@H](CCCNC(=N)N)C(=O)N[C@H](C(=O)O)C(C)C [Peptide 1418.67]
8.28

Form field: reported pIC50 of CSCC[C@H](NC(=O)[C@H](Cc1ccccc1)NC(=O)[C@H](CCCCN)NC(=O)[C@@H](NC(=O)[C@@H](NC(=O)[C@@H](N)CCCCN)C(C)C)[C@@H](C)O)C(=O)N[C@@H](CC(C)C)C(=O)N[C@@H](CS)C(=O)N[C@H](C(=O)O)C(C)C [Peptide 60.0220]
7.28

###

Kindly supply the reported IC50 values for the records listed here.
test target: HLA-A*0202 (Homo sapiens, UniProt P04439, D140Y/D185E/D98H/E176V/E277Q/G131W/G231S/I119L/I121R/I166T/I218V/L180W/L300P/L318F/N151K/N90K/P208A/P217A/Q67R/Q86G/Q94H/R138H/R169H/T345S)
method description: HLA class I binding assay, purified HLA, inhibition of 125I-labelled probe peptide
particulars: A2 supermotif cross-reactive binding data
Response body: numeric value in nM, unit text excluded.

Form field: reported IC50 of CC(C)C[C@H](NC(=O)[C@H](CC(=O)O)NC(=O)CNC(=O)[C@H](CCC(=O)O)NC(=O)[C@@H]1CCCN1C(=O)[C@H](CC(C)C)NC(=O)CN)C(=O)N[C@H](C(=O)N[C@@H](Cc1ccc(O)cc1)C(=O)N[C@H](C(=O)O)C(C)C)C(C)C [Peptide 1389.22]
2

Form field: reported IC50 of CSCC[C@H](NC(=O)[C@H](Cc1ccccc1)NC(=O)[C@H](CCC(=O)O)NC(=O)[C@@H](NC(=O)[C@@H](NC(=O)[C@@H](N)CCCCN)C(C)C)[C@@H](C)O)C(=O)N[C@@H](CC(C)C)C(=O)N[C@@H](CS)C(=O)N[C@H](C(=O)O)C(C)C [Peptide 1418.21]
27

Form field: reported IC50 of CC[C@H](C)[C@H](N)C(=O)N[C@@H](CC(C)C)C(=O)N[C@@H](CC(C)C)C(=O)N[C@@H](CO)C(=O)N[C@H](C(=O)NCC(=O)N[C@@H](CS)C(=O)N[C@H](C(=O)NCC(=O)N[C@@H](C)C(=O)N[C@H](C(=O)O)C(C)C)[C@@H](C)O)C(C)C [Peptide 1418.57]
33

Form field: reported IC50 of CSCC[C@H](NC(=O)[C@H](CC(=O)O)NC(=O)[C@H](CC(N)=O)NC(=O)[C@H](CO)NC(=O)[C@H](CC(C)C)NC(=O)[C@H](CC(C)C)NC(=O)[C@@H](N)Cc1c[nH]cn1)C(=O)N[C@@H](CS)C(=O)N[C@@H](C)C(=O)N[C@@H](CCCNC(=N)N)C(=O)N[C@H](C(=O)O)C(C)C [Peptide 1418.67]
1.3

Form field: reported IC50 of CSCC[C@H](NC(=O)[C@H](Cc1ccccc1)NC(=O)[C@H](CCC(=O)O)NC(=O)[C@@H](NC(=O)[C@@H](NC(=O)[C@@H](N)CCCCN)C(C)C)[C@@H](C)O)C(=O)N[C@@H](CC(C)C)C(=O)N[C@@H](CS)C(=O)N[C@@H](C)C(=O)NCC(=O)N[C@H](C(=O)O)C(C)C [Peptide 1418.71]
10

Form field: reported IC50 of CC(C)C[C@H](NC(=O)[C@H](C)N)C(=O)N[C@@H](CO)C(=O)N[C@H](C(=O)NCC(=O)N[C@@H](CS)C(=O)N[C@H](C(=O)NCC(=O)N[C@H](C(=O)O)C(C)C)[C@@H](C)O)C(C)C [Peptide 1418.15]
17

Form field: reported IC50 of CC(C)C[C@H](NC(=O)[C@H](CO)NC(=O)[C@H](CC(C)C)NC(=O)[C@H](CO)NC(=O)[C@H](C)NC(=O)[C@H](C)NC(=O)[C@H](CCCNC(=N)N)NC(=O)[C@H](C)NC(=O)[C@H](CC(C)C)NC(=O)[C@@H](N)CC(C)C)C(=O)O [Peptide 20.0203]
5.2

Form field: reported IC50 of CC(C)C[C@H](NC(=O)[C@H](CO)NC(=O)[C@H](CC(C)C)NC(=O)[C@H](CO)NC(=O)[C@H](C)NC(=O)[C@H](C)NC(=O)[C@H](CCCNC(=N)N)NC(=O)[C@H](C)NC(=O)[C@H](CC(C)C)NC(=O)[C@H](CC(C)C)NC(=O)[C@@H](N)CC(C)C)C(=O)O [Peptide 63.0136]
3.1

Form field: reported IC50 of CSCC[C@H](NC(=O)[C@H](CC(=O)O)NC(=O)[C@H](CC(N)=O)NC(=O)[C@H](CO)NC(=O)[C@H](CC(C)C)NC(=O)[C@H](CC(C)C)NC(=O)[C@@H](N)Cc1c[nH]cn1)C(=O)N[C@@H](CS)C(=O)N[C@H](C(=O)O)C(C)C [Peptide 1418.20]
102

Form field: reported IC50 of CC[C@H](C)[C@H](NC(=O)[C@H](Cc1ccccc1)NC(=O)[C@H](C)NC(=O)[C@H](CCCNC(=N)N)NC(=O)[C@H](CCC(=O)O)NC(=O)[C@H](CC(C)C)NC(=O)[C@H](Cc1ccccc1)NC(=O)[C@H](CCSC)NC(=O)[C@H](CC(C)C)NC(=O)[C@@H](N)CCC(N)=O)C(=O)O [Peptide 1126.16]
36

Form field: reported IC50 of CC(C)C[C@H](NC(=O)[C@@H](NC(=O)[C@H](CC(C)C)NC(=O)[C@@H](N)Cc1ccccc1)[C@@H](C)O)C(=O)N[C@@H](CO)C(=O)N[C@H](C(=O)N[C@H](C(=O)N[C@@H](Cc1c[nH]c2ccccc12)C(=O)N[C@H](C(=O)O)C(C)C)[C@@H](C)O)C(C)C [Peptide 60.0216]
8.4

Form field: reported IC50 of CC[C@H](C)[C@H](NC(=O)[C@H](CO)NC(=O)[C@@H](NC(=O)CN)C(C)C)C(=O)N[C@@H](Cc1c[nH]c2ccccc12)C(=O)N[C@@H](CC(N)=O)C(=O)N1CCC[C@H]1C(=O)N[C@H](C(=O)N[C@@H](CC(C)C)C(=O)N[C@H](C(=O)O)C(C)C)[C@@H](C)CC [Peptide 63.0041]
94

Form field: reported IC50 of CC(C)C[C@H](NC(=O)[C@H](CO)NC(=O)[C@H](C)NC(=O)[C@H](C)NC(=O)[C@H](CCCNC(=N)N)NC(=O)[C@H](C)NC(=O)[C@H](CC(C)C)NC(=O)[C@H](CC(C)C)NC(=O)[C@@H](N)CC(C)C)C(=O)O [Peptide 20.0044]
13

Form field: reported IC50 of CC[C@H](C)[C@H](NC(=O)[C@H](CC(=O)O)NC(=O)[C@H](Cc1ccccc1)NC(=O)[C@@H](NC(=O)[C@H](C)N)[C@@H](C)O)C(=O)N[C@@H](CCC(=O)O)C(=O)N[C@@H](CO)C(=O)N[C@@H](CCCCN)C(=O)N[C@H](C(=O)O)C(C)C [Peptide 1418.30]
27
